I'd be grateful if you could share measured IC50 for these entries.
Biological target: Prostaglandin G/H synthase 2 (Homo sapiens)
Sequence (P35354 whole entry): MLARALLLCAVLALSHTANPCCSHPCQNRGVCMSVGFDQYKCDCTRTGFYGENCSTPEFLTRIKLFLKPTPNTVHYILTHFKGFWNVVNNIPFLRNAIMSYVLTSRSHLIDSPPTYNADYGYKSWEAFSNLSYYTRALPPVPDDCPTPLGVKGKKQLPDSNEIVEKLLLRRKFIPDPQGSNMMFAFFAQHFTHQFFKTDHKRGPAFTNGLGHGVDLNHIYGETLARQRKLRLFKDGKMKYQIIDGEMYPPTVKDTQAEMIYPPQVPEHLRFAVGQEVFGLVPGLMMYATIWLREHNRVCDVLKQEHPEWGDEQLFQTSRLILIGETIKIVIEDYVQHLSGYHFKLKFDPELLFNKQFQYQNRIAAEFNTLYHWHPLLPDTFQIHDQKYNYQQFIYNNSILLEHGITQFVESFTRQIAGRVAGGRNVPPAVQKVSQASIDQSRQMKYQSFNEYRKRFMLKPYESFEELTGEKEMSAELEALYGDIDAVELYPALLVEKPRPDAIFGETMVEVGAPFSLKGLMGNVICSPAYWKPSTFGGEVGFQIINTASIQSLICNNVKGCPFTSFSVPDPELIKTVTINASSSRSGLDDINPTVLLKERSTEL
Assay: Inhibition of human recombinant COX2 by enzyme immuno assay
Numbers only, in µM.

These recorded examples may help you get a feel for the data.
structurenotation=NS(=O)(=O)c1ccc(C#Cc2ccc(=O)n(C(F)F)c2)cc1 unitslabel=µM assayvalue=6
structurenotation=CS(=O)(=O)c1ccc(C#Cc2ccc(=O)n(C(F)F)c2)cc1 unitslabel=µM assayvalue=5.1
structurenotation=CS(=O)(=O)c1cccc(C#Cc2ccc(=O)n(C(F)F)c2)c1 unitslabel=µM assayvalue=3.7

[Q] Which value of IC50 has been reported for "CS(=O)(=O)c1ccccc1C#Cc1ccc(=O)n(C(F)F)c1" in the records?
[A] 9.4

Data origin, for the record: ChEMBL document CHEMBL1143375
